- System under test: UniProtKB P04190
- Procedure text: Inhibition assay with nitrocefin as reporter substrate
Can you tell me IC50 for the items I'm about to list?
One number for each entry, in µM.

Illustrative cases are given below, each with its answer.
O=C(O)CN(CCN(CC(=O)O)CC(=O)O)CC(=O)O : 7500
O=C(O)/C(S)=C/c1c(Cl)ccc(Cl)c1Cl [ML302F] : 0.046

Value of IC50 reported for the compound O=C(O)C(S)c1ccccc1 (stereo not drawn) is 1.3

====

- System under test: di-Fe(II) BcII (Bacillus cereus)
- Sequence (P04190 31-257): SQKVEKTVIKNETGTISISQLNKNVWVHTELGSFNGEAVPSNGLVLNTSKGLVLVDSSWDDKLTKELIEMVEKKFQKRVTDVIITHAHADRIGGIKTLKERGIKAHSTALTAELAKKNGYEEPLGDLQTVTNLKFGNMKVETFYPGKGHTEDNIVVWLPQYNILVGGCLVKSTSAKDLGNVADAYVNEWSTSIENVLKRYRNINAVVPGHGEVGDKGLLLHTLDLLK
- Procedure text: Inhibition assay with nitrocefin as reporter substrate
Readout type: IC50

// worked examples, IC50 included
O=C(O)CN(CCN(CC(=O)O)CC(=O)O)CC(=O)O [EDTA] : 4700 µM
O=C(O)C(S)c1ccccc1 (stereo not drawn) [Thiomandelic acid] : 2.8 µM

Turning now to a further compound:
The recorded IC50 for entry O=C(O)/C(S)=C/c1c(Cl)ccc(Cl)c1Cl [ML302F] equals 0.38 µM
